# System: LOX IMVI
# experiment notes: NCI tumour cell line growth inhibition, 48 h
Active and inactive are the calls of the source. Cut-off read from the data, not from the text of the source: active = GI50 up to about 1.1 µM and inactive = higher.
measurement kind: GI50

Known results for compounds:
O=C(CN(c1ccccc1)c1ccccc1)N1c2ccccc2C2C=CC=CC21 (stereo unspecified): 18.2 µM (inactive)
Oc1ccc(Cl)cc1Cc1cc(Cl)cc(Cc2cc(Cl)ccc2O)c1O: 2.9 µM (inactive)

[Q] Give its GI50 value. Item: N[C@@H](CCC(=O)NC(Cc1ccccc1)C(=O)NCP(=O)(O)O)C(=O)O (stereo partly specified)
[A] > 100 µM (inactive)

[Q] Give its GI50 value. Item: `CCOC(=O)c1ncn2c1[nH]c(=S)c1ccccc12`
[A] 61.7 µM (inactive)

* * *

Property: GI50; scope: individual compounds
# System: NCI-H522
# experiment notes: NCI tumour cell line growth inhibition, 48 h
The source made the active and inactive calls. No stated cut-off is given here; in the data, active = GI50 up to about 1.1 µM and inactive = higher.

Known results for compounds:
COC(=O)c1ccc(/C=C/C2=CC(=O)C=CC2=O)cc1: 1.8 µM (inactive)
Cc1cc(S(=O)(=O)Nc2nc(N)nc(N3N=CCC3C)n2)c(SCC(=O)O)cc1Cl (centres undefined): > 10 µM (inactive)
CO[C@]12CC(=O)C3(C(C[C@H]4CC5CC=C6C[C@@H](OC(C)=O)CC[C@]6(OC(C)=O)C5C[C@@]43C)C1)C1C[C@H]3[C@@H]4CC=C5C[C@@H](OC(C)=O)CC[C@]5(OC(C)=O)[C@H]4CC[C@]3(C)C12 (some centres undefined): 14 µM (inactive)
Cn1c(=O)n2c(=O)n(C)c(=O)n2c1=O: > 100 µM (inactive)
CC1(C)CCOC(Sc2ccccc2)C1 (centres undefined): 18.8 µM (inactive)
CCOC(=O)NC(Nc1cc(Cl)ccc1OC)(C(F)(F)F)C(F)(F)F: 64 µM (inactive)

[Q] Give its GI50 value. Item: `CCOC(=O)C(C)(C)Oc1ccc2c(=O)cc(-c3ccccc3)oc2c1`
[A] 13.9 µM (inactive)

[Q] Give its GI50 value. Item: C[C@H]1[C@H](C)N1CC(O)Cn1ccnc1[N+](=O)[O-] (some centres undefined)
[A] > 100 µM (inactive)

[Q] Give its GI50 value. Item: `O=C1c2ccccc2C(=O)N1CCCCCCNOCCCN1C(=O)c2ccccc2C1=O`
[A] 26.5 µM (inactive)

* * *

# Test system: TK-10
# experiment notes: NCI tumour cell line growth inhibition, 48 h
Calls of active or inactive are those of the source. No stated cut-off is given here; in the data, active = GI50 up to about 1.1 µM and inactive = higher.
// one of 1 = active, 0 = inactive, no free text

// known answers, use as guide
CN(C)CCNC(=O)Cn1ccc(=O)c2cc([N+](=O)[O-])ccc21: 0
O=C(N/N=C\c1ccccc1)Nc1cccc2ccccc12: 0
NC(=S)N/N=C1\CCCC\C1=C/c1ccccc1: 0

[Q] // param item: `C=C1C(=O)O[C@@H]2C[C@@H](C)[C@@H]3C=CC(=O)[C@@]3(C)[C@@H](OC(=O)CC(=O)O[C@H]3[C@@H]4C(=C)C(=O)O[C@@H]4C[C@@H](C)[C@@H]4C=CC(=O)[C@]43C)[C@H]12` ; yields the recorded call
[A] 1

* * *

# System: U-251
# experiment notes: NCI tumour cell line growth inhibition, 48 h
Calls of active or inactive are those of the source. Rule as the data show it: active = GI50 up to about 1.1 µM and inactive = higher.
// one of yes (1) for active, no (0) for inactive, no free text

// known answers, use as guide
CCN(CC)CCN1C(=O)c2cccc3cc(N)cc(c23)C1=O: no (0)
CC(=N)OC1CC2CCC1(C)C2(C)C (stereo not given): no (0)
O=C(O)C(CS)NCc1c2ccccc2nc2ccccc12 (stereo not given): no (0)
Cc1cc(S(=O)(=O)Nc2nc(N)nc(N3N=CCC3C)n2)c(SCC(=O)O)cc1Cl (stereo not given): no (0)
CC(C)(C(=O)NN)c1ccccc1: no (0)

[Q] // param item: `N#Cc1nc(C(F)(F)F)oc1N` ; yields the recorded call
[A] no (0)

[Q] // param item: CC1OC(O[C@@H]2C=C3CC[C@@H]4[C@H](CC[C@]5(C)[C@@H](c6ccc(=O)oc6)CC[C@]45O)[C@@]3(C)CC2)C(O)C(OC2OC(CO)C(O)C(O)C2O)C1O (stereo not given in full) ; yields the recorded call
[A] yes (1)

[Q] // param item: `O=C(c1ccco1)N(C(=O)N1CCC(c2ccccc2)CC1)c1ccccc1` ; yields the recorded call
[A] no (0)

[Q] // param item: COC(=O)C1CCc2c(OC)ccc(OC)c2C1=O (stereo not given) ; yields the recorded call
[A] no (0)

[Q] // param item: `CN(C)CCCSc1nc2c(c(=N)n1-c1ccccc1)c(=S)n(-c1ccccc1)c(=S)n2-c1ccccc1` ; yields the recorded call
[A] no (0)
